// provenance: patent US20090264401A1

Catalogue of inhibition at 30 µM readings, one per entry.
tested_on: human 11βHSD1 enzyme (Homo sapiens)
Construct: baculovirus expressed N terminal 6-His tagged full length human 11βHSD1 enzyme; 6-His (N); made in house
assay_protocol: 11βHSD1 cortisone to cortisol conversion, competitive HTRF assay
Assay type: biochemical
recorded_conditions: human 11-βHSD; test concentration of 30 μM of compound
Your answer is read as %, so omit the unit and give the number.

In: If you can, please state the reported inhibition at 30 µM value of CNc1ncc(C(=O)N[C@H]2C3CC4CC2C[C@@](O)(C4)C3)c(C2CC(F)(F)C2)n1 [Example 154] .
Out: 88

---
In: If you can, please state the reported inhibition at 30 µM value of CCOc1nc(NC2CCC2)ncc1C(=O)N[C@H]1C2CC3CC1C[C@@](O)(C3)C2 [Example 212] .
Out: 105

In: If you can, please state the reported inhibition at 30 µM value of O=C(N[C@H]1C2CC3CC1C[C@@](O)(C3)C2)c1cnc(NC2CC2)nc1C1CC(F)(F)C1 [Example 155] .
Out: 92.6

In: If you can, please state the reported inhibition at 30 µM value of O=C(N[C@H]1C2CC3CC1C[C@@](O)(C3)C2)c1cnc(NC2CC2)nc1C1CCCO1 (some centres unmarked) [Example 160] .
Out: 104

In: If you can, please state the reported inhibition at 30 µM value of O=C(N[C@H]1C2CC3CC1C[C@@](O)(C3)C2)c1cnc(NC2COC2)nc1C1CCCO1 (some centres unmarked) [Example 164] .
Out: 98.9

###

Catalogue of pIC50 readings, one per entry.
tested_on: human 11βHSD1 enzyme (Homo sapiens, UniProt P28845)
Construct: baculovirus expressed N terminal 6-His tagged full length human 11βHSD1 enzyme; 6-His (N)
Sequence (P28845 whole entry): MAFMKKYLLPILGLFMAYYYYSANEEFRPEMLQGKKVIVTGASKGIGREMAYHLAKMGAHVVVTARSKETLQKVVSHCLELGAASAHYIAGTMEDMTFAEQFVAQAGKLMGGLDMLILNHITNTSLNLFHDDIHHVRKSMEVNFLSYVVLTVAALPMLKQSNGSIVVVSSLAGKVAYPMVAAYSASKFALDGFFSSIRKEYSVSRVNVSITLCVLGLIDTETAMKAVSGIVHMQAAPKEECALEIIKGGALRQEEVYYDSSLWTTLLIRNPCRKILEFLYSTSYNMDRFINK
assay_protocol: 11βHSD1 cortisone to cortisol conversion, competitive HTRF assay
recorded_conditions: recombinant N terminal 6-His tagged full length human 11βHSD1; cortisone 160 nM; 25 minutes at 37° C.
Scale: negative log10 of molar concentration, which is what pIC50 denotes.

In: If you can, please state the reported pIC50 value of O=C(N[C@H]1C2CC3CC1C[C@@](O)(C3)C2)c1cnc(N2CCOCC2)nc1N1CCOCC1 [compound 32] .
Out: 6.66

In: If you can, please state the reported pIC50 value of COc1ncc(C(=O)N[C@H]2C3CC4CC2C[C@@](O)(C4)C3)c(C2CC2)n1 [Example 33] .
Out: 7.48

In: If you can, please state the reported pIC50 value of O=C(NC1C2CC3CC(C2)CC1C3)c1cnc(N2CCOCC2)nc1C1CC1 (centres unmarked) [Example 13] .
Out: 7.85

In: If you can, please state the reported pIC50 value of CCCSc1nc(N2CCC[C@@H](CC(=O)O)C2)ncc1C(=O)NC1CCCCC1 [Example 20] .
Out: 8.70

---
In: If you can, please state the reported pIC50 value of CCCSc1ncc(C(=O)N[C@H]2C3CC4CC2C[C@@](O)(C4)C3)c(SCCC)n1 [Example 16] .
Out: 8.70

###

tested_on: human 11βHSD1 enzyme (Homo sapiens, UniProt P28845)
Construct: baculovirus expressed N terminal 6-His tagged full length human 11βHSD1 enzyme; 6-His (N); made in house
assay_protocol: 11βHSD1 cortisone to cortisol conversion, competitive HTRF assay
Format: biochemical
recorded_conditions: human 11-βHSD; test concentration of 30 μM of compound
outcome_measure: inhibition at 30 µM
Don't forget the unit after the number, please.

Sample answers from the record:
In: If you can, please state the reported inhibition at 30 µM value of COc1ncc(C(=O)N[C@H]2C3CC4CC2C[C@@](O)(C4)C3)c(C2CCCC2)n1 [Example 117] .
Out: 97.4%

In: If you can, please state the reported inhibition at 30 µM value of O=C(N[C@H]1C2CC3CC1C[C@@](O)(C3)C2)c1cnc(N2CC(F)(F)C2)nc1C1CCCC1 [Example 146] .
Out: 93.4%

---
In: If you can, please state the reported inhibition at 30 µM value of CCCSc1nc(N2CCN(C(C)=O)CC2)ncc1C(=O)NC1C2CC3CC(C2)CC1C3 (stereo not drawn) [Example 27] .
Out: 95.5%

In: If you can, please state the reported inhibition at 30 µM value of Cc1ncc(C(=O)N[C@H]2C3CC4CC2C[C@@](O)(C4)C3)c(OC(C)C)n1 [Example 202] .
Out: 102%

In: If you can, please state the reported inhibition at 30 µM value of CC(C)c1ncc(C(=O)N[C@H]2C3CC4CC2C[C@@](O)(C4)C3)c(C2CCCC2)n1 [Example 150] .
Out: 96%

In: If you can, please state the reported inhibition at 30 µM value of Nc1ncc(C(=O)N[C@H]2C3CC4CC2C[C@@](O)(C4)C3)c(C2CCCC2)n1 [Example 135] .
Out: 100%

In: If you can, please state the reported inhibition at 30 µM value of O=C(N[C@H]1C2CC3CC1C[C@@](O)(C3)C2)c1cnc(N2CC3CC2C[S+]3[O-])nc1C1CC1 (stereo partly drawn) [Example 47] .
Out: 97.3%
